- Tested on: K-562 leukemia
- assay.text: NCI tumour cell line growth inhibition, 48 h
quantity.measured: TGI (µM)

molecule="CC1(C)C(N(O)C(=O)Nc2ccc(Cl)cc2)N(c2ccc(Cl)cc2)C(=O)N1CC(=O)N/N=C/C=C/c1ccc([N+](=O)[O-])o1 (stereo unspecified)" bound_operator== recorded_value=6.03
molecule=Cc1cc(=O)oc2cc(OCc3nc4ccccc4c(=O)n3-c3ccccc3)ccc12 bound_operator=> recorded_value=100
molecule=CN(C)CCNc1ccc2nnn3c4ccccc4c(=O)c1c23 bound_operator== recorded_value=18.9
molecule="Clc1ccc2c(c1)C(Br)c1cc(Cl)cc(Cl)c1-2 (stereo unspecified)" bound_operator=> recorded_value=100
molecule=O=c1c(-c2ccccc2)c2n(c3ccccc13)CCN2 bound_operator=> recorded_value=100
molecule=CCN(CC)CCNc1ccc2nnn3c4ccc([N+](=O)[O-])cc4c(=O)c1c23 bound_operator== recorded_value=32.8
molecule="CN(CCCCCl)P(=O)(OCC1=CC(=O)c2ccccc2C1=O)OC[C@H]1O[C@@H](n2cc(F)c(=O)[nH]c2=O)C[C@@H]1O (stereo partly specified)" bound_operator== recorded_value=40.9
molecule=O=C1C(Cl)=C(Cl)C(=O)C2=C1C1c3ccccc3C2c2ccccc21 bound_operator=> recorded_value=100
molecule=CC(C)=CCC/C(C)=C/CO bound_operator=> recorded_value=100
molecule=CC(=O)NS(=O)(=O)c1ccc(-n2nc(-c3ccc(Cl)cc3)cc2-c2cc(O)ccc2O)cc1 bound_operator== recorded_value=96
molecule=COc1ccc(NC2=NCCO2)c2c1CCCC2 bound_operator=> recorded_value=100
molecule=O=C1C(Cl)=C(N2C(=O)CCC2=O)C(=O)c2ccccc21 bound_operator== recorded_value=17.1
molecule="Cc1nn(C(=O)c2ccccc2O)c2c1C(c1ccc3ccccc3c1O)SC(N)=N2 (stereo unspecified)" bound_operator=> recorded_value=10
molecule=O=[N+]([O-])c1ccc(C2=Nn3c(nnc3-c3ccccc3)SC2)o1 bound_operator=> recorded_value=100
molecule=CCOC(=O)C1=C(Cl)c2cccnc2C1=O bound_operator=> recorded_value=100
molecule=Nc1nc(-c2ccco2)cc(-c2ccco2)n1 bound_operator=> recorded_value=100
molecule=O=C1C=CC(=O)c2cc3cc(CO)ccc3cc21 bound_operator== recorded_value=3.04
molecule="O=C1C(Cl)C(c2cc3cc(Br)ccc3nc2Cl)N1c1ccc(F)c(Cl)c1 (stereo unspecified)" bound_operator== recorded_value=17
molecule="CCCCCCCCOCC(CO)OCCCCCCCC (stereo unspecified)" bound_operator== recorded_value=32.4
molecule=O=C(c1ccc(Cl)cc1)c1no[n+]([O-])c1C(=O)c1ccc(Cl)cc1 bound_operator== recorded_value=31.8
molecule=c1ccc([P+](c2ccccc2)(c2ccccc2)c2ccc3c4ccc([P+](c5ccccc5)(c5ccccc5)c5ccccc5)c5cccc(c6cccc2c63)c54)cc1 bound_operator=> recorded_value=100
